Values compiled from PubChem BioAssay (NCI).

- Test system: NCI-H226 lung
- measurement_protocol: NCI-60 one-dose screen, 48 h (100 = growth as untreated, 0 = no growth, -100 = all killed)
- assay_context: 10 µM unless noted
Compounds without any hit were thinned out: in the full panel of roughly 83,000, 20% have a hit. Activity calls are given as the source filed them. How the source made its calls: active means growth percent below 10; inactive means the rest.
Consider the following molecules; for each one, report its growth.

## Task Look up growth: C=C1C(=O)O[C@H]2[C@H]1CC/C(CNC(=O)c1cccc3ccccc13)=C\CC[C@@]1(C)O[C@@H]21
## Result 78% (inactive)

## Task Look up growth: Nc1c(C(=O)Nc2cccc3cnccc23)sc2nc3c(cc12)C(=O)CCC3
## Result 92.7% (inactive)

## Task Look up growth: CCCCCCCC(=O)OCC/C=C/C1OC1C1OC(=O)/C=C\C=C\C(=O)N(C(C)=O)C(=O)/C=C(/C)CCC2OC2C1OC(=O)NC(C)=O (configuration not stated)
## Result 81.1% (inactive)

## Task Look up growth: COc1cccc(-c2cc(C(=O)Nc3ccc(/C=C/c4ccc(OC5CCN(C)CC5)cc4)cc3)ccc2OC)c1
## Result 76.2% (inactive)

## Task Look up growth: CCOC(=O)CSc1nc2ccccc2c(=O)n1Cc1ccc(S(N)(=O)=O)cc1
## Result 100% (inactive)

## Task Look up growth: CCN(CC)CCOc1ccc(NC(=O)C(C(C)C)N2C(=O)/C(=C/c3ccc(Br)cc3)SC2=S)cc1 (configuration not stated)
## Result 90% (inactive)

## Task Look up growth: O=C(/C=C(O)/C=C/c1ccc(SC(F)(F)F)cc1)/C=C/c1ccc(SC(F)(F)F)cc1
## Result 100% (inactive)

## Task Look up growth: COc1ccc(-c2nc([C@@H](C)Sc3nc(N)cc(N)n3)c(C)s2)cc1OCCN1CCOCC1
## Result 95.7% (inactive)

## Task Look up growth: COc1cc2oc(-c3cccc(C(=O)Nc4ccccc4)c3)cc(=O)c2c(O)c1OC
## Result 73.2% (inactive)

## Task Look up growth: Cn1ccnc1C(=O)/C=C/c1ccc(CC(=O)Nc2ccc(F)cc2)cc1
## Result 82.5% (inactive)

## Task Look up growth: CCCCCCNC(=O)Nc1ccc2cc3ccc(NC(=O)NCCCCCC)cc3nc2c1
## Result 79.5% (inactive)

## Task Look up growth: CCOc1cccc(-c2nc(N)nc(Nc3ccccc3SSc3ccccc3Nc3nc(N)nc(-c4cccc(OCC)c4)n3)n2)c1
## Result 68% (inactive)

## Task Look up growth: CCN1C(=O)/C(=C/C(=O)OC)S/C1=N\NC(=O)c1cc2ccc1/C=C\c1ccc(cc1)/C=C\2
## Result 92.7% (inactive)

## Task Look up growth: CCOC(=O)Oc1c(OC)cc(C(=O)c2ccc(OC)c(O)c2OC)cc1OC
## Result 54.9% (inactive)

## Task Look up growth: CC(=O)c1ccc(NS(=O)(=O)c2cccc(C(=O)Nc3ccc(Br)cc3)c2)cc1
## Result 43% [25 µM] (inactive)

## Task Look up growth: CC[C@]12C=CCN3CC[C@@]4(c5cc(NC(=O)CCC(=O)O[C@H]6CC[C@H]7[C@@H]8CCC9=CC(=O)CC[C@@H]9[C@H]8CC[C@]67C)c(OC)cc5N(C)[C@H]4[C@@](O)(C(=O)OC)[C@@H]1OC(C)=O)[C@@H]32
## Result 86.5% (inactive)

## Task Look up growth: C/C=C(\C)C(=O)NC1=CC[C@@]2(C)C(=CCC3C2CC[C@@]2(C)C3CC[C@@H]2C(C)N(C)C)C1=O (some centres not stated)
## Result 89.6% (inactive)

## Task Look up growth: CNC(=O)c1cc(Cn2nc(C)c(NC(=O)Nc3ccc(Cl)c(C(F)(F)F)c3)c2C)ccn1
## Result 96.6% (inactive)

## Task Look up growth: COc1cc2oc(-c3cccc(C(=O)Nc4ccc(Cl)cc4)c3)cc(=O)c2c(O)c1OC
## Result 66.4% (inactive)

## Task Look up growth: CCCCCCNC(=O)Oc1ccc(/C(=C(\C)c2ccccc2)c2ccc(OCCN3CCCCC3)cc2)cc1
## Result 93.8% (inactive)

## Task Look up growth: COc1cc2c(c(OC)c1OC)CCC(c1cccc(NC(=O)c3cccc(Br)c3)c1)O2 (configuration not stated)
## Result 93.7% (inactive)

## Task Look up growth: CCNc1nc2cc(Nc3ccnc4cc(Cl)ccc34)ccc2o1
## Result 79.6% (inactive)

## Task Look up growth: Cc1nn(-c2ccccc2)c(Cl)c1/C=N\N=c1/sc2ccccc2n1C
## Result 105% (inactive)

## Task Look up growth: O=S(=O)(NCCCNc1nccc(-c2c(-c3cccc(F)c3)nc3sccn23)n1)c1cccc2ccccc12
## Result 36.8% (inactive)

## Task Look up growth: CC1(C)CC[C@]23CC[C@]4(C)[C@H](CC[C@@H]5[C@@]6(C)CCCNC(C)(C)[C@@H]6CC[C@]54C)[C@H]2[C@H]1OC3
## Result 34.8% (inactive)

## Task Look up growth: Cc1ccc(S(=O)(=O)NNC(=O)/C(=C\c2ccc(Cl)cc2)c2nc3ccccc3s2)cc1
## Result 81.2% (inactive)

## Task Look up growth: O=S(=O)(NCCNc1nccc(-c2c(-c3cccc(F)c3)nc3sccn23)n1)c1ccccc1
## Result 34.5% (inactive)

## Task Look up growth: C#CCNC(=O)[C@H](Cc1ccccc1)NC(=O)[C@]12CC[C@@H](C(=C)C)[C@@H]1[C@H]1CC[C@@H]3[C@@]4(C)CCC(=O)C(C)(C)[C@@H]4CC[C@@]3(C)[C@]1(C)CC2
## Result 68.7% (inactive)

## Task Look up growth: Cc1nn(-c2ccccc2)c(Oc2c(Cl)cccc2Cl)c1/C=N/N=c1\sc2ccccc2n1C
## Result 53.3% (inactive)

## Task Look up growth: COc1cc2c(c(OC)c1OC)-c1ccc(NNC(=S)N(Cc3cccc(C[N+](Cc4cccc(CNC56CC7CC(CC(C7)C5)C6)c4)(Cc4cccc(CNC56CC7CC(CC(C7)C5)C6)c4)Cc4cccc(CN(C(=S)NNc5ccc6c(cc5=O)[C@@H](NC(C)=O)CCc5cc(OC)c(OC)c(OC)c5-6)C56CC7CC(CC(C7)C5)C6)c4)c3)C34CC5CC(CC(C5)C3)C4)c(=O)cc1[C@@H](NC(C)=O)CC2 (some centres not stated)
## Result -8.38% (active)

## Task Look up growth: O=C(CCN1CCCC1)c1ccc([N+](=O)[O-])cc1
## Result 99.1% (inactive)

## Task Look up growth: O=[N+]([O-])c1ccc(NC(=S)N/N=C/c2cc3ccccc3n3nnnc23)cc1
## Result 72% (inactive)

====

- Tested on: SF-295 CNS
- measurement_protocol: NCI-60 one-dose screen, 48 h (100 = growth as untreated, 0 = no growth, -100 = all killed)
- assay_context: 10 µM unless noted
Compounds without any hit were thinned out: in the full panel of roughly 83,000, 20% have a hit.
// class assignment uses growth with these ranges: lower segment: < 30%; middle segment: ≥ 30% and < 90%; upper segment: ≥ 90%

## Task Returns: class label. Input: CNCCn1c(=O)c2cc(OC)c(OC)cc2c2ccc3cc4c(cc3c21)OCO4
## Result lower segment

## Task Returns: class label. Input: COc1cc2oc(-c3cccc(C(=O)Nc4ccccc4)c3)cc(=O)c2c(O)c1OC
## Result middle segment

## Task Returns: class label. Input: O=C(c1ccccc1)N1N=C(c2ccc(-n3ccc(C(F)(F)F)n3)c(F)c2)CC1c1ccc[nH]1 (stereo not given)
## Result upper segment

## Task Returns: class label. Input: CCOC(=O)c1cc(C(=O)c2ccc(OC)cc2)n2ccc(/C=C/c3cc[n+](CC(=O)c4ccc(OC)cc4)cc3)cc12
## Result upper segment

## Task Returns: class label. Input: N/C(=N\C(N)=N\c1nc2ccccc2s1)c1cccc(Cl)c1
## Result lower segment

## Task Returns: class label. Input: COc1cc(/C=C/C(=O)c2nc3cc(F)ccc3nc2C)cc(OC)c1OC
## Result upper segment

## Task Returns: class label. Input: Cc1ccc(C(=O)/C(=C\c2ccc([N+](=O)[O-])cc2)S(=O)Cc2ccc(F)cc2)cc1 (stereo not given)
## Result middle segment

## Task Returns: class label. Input: COc1ccc(OC)c(CCn2cncc2-c2c[nH]c3ccccc23)c1
## Result middle segment

## Task Returns: class label. Input: CC1=CCC(OC(=O)C(C)(O)CCC(O)(C(=O)OC2(C)C=CC(O)(C(C)C)CC2)C(C)C)(C(C)C)CC1 (stereo not given)
## Result upper segment

## Task Returns: class label. Input: Cn1cc(CC2CC(=O)N(c3ccccc3)C2=O)sc1=NC(=O)c1ccccc1 (stereo not given)
## Result upper segment

## Task Returns: class label. Input: CC(=O)Nc1cccc(-c2ccc3c(c2)NC(=O)/C3=C\c2ccc[nH]2)c1
## Result middle segment

## Task Returns: class label. Input: Cc1nc2sccn2c1-c1nc2sccn2c1/C=C1/C(=O)Nc2ccccc21
## Result lower segment

## Task Returns: class label. Input: COc1ccc2c(c1)oc1c(C)c3c(c(C)c12)C(=O)N(N)C3=O
## Result lower segment

## Task Returns: class label. Input: COc1ccc(C(=O)C2C(C#N)C(C#N)C3C=Cc4ccccc4N32)cc1 (stereo not given)
## Result lower segment

## Task Returns: class label. Input: CN1CCN(CCNc2nccc(-c3c(-c4cccc(O)c4)nc4sccn34)n2)S1(=O)=O
## Result upper segment

## Task Returns: class label. Input: CCOC(=O)[C@@H]1CCCN(S(=O)(=O)c2ccc(S(=O)(=O)N(CC)CC)c(F)c2)C1
## Result middle segment
